System: HT-29 cells
test.protocol: HT-29 tumor cell growth inhibition, SRB assay
Assay type: cell-based, human
experimental.context: Homo sapiens, HT-29; 100 μM single dose; read-out: Growth inhibitory activity, % Inhibition at 100 μM
parameter: inhibition at 100 µM (%)
Give bare numbers, in %.

item.smiles	experimental.result
COc1cc(/C=C2/C(C)=C(CC(=O)NCc3ccccc3)c3cc(F)ccc32)cc(OC)c1OC	62

As a next step, examine the compound that follows.
Requested read-out: inhibition at 100 µM. Entry: COc1cc(/C=C2/C(C)=C(CC(=O)O)c3cc(F)ccc32)cc(OC)c1OC
77
